- Tested on: MMP13
- test description: Stem cell chondrogenesis, real time PCR gene expression: MMP13
- Assay type: cell-based, human
- condition label: MMP13; Day 22; vs saline; Table 16
observation type: Mean regulation
API note: the answer field is a bare number with no unit suffix.

IN: Item under review: CC#C[C@]1(O)CC[C@H]2[C@@H]3CCC4=CC(=O)CCC4=C3[C@@H](c3ccc(N(C)C)cc3)C[C@@]21C . Reported Mean regulation?
OUT: −1.57

IN: What would you report for C[C@@H]1NC(=O)[C@H](CC(=O)O)NC1=O ?
OUT: 0.36

IN: What would you report for CC(=O)OCC(=O)[C@@]1(O)[C@H](C)C[C@H]2[C@@H]3CCC4=CC(=O)C=C[C@]4(C)[C@@]3(F)[C@@H](O)C[C@@]21C [Dexamethasone, Dexamethasone acetate] ?
OUT: −2.73

IN: What would you report for CC(=O)N[C@@H](Cc1c[nH]c2ccccc12)C(=O)O ?
OUT: 0.29

IN: What would you report for CCCCCCCC(=O)[O-].[Na+] [Caprylate, sodium caprylate] ?
OUT: 0.62

* * *

Property: Mean regulation; scope: individual compounds
- Test system: Collagen 2A1
- test description: Stem cell chondrogenesis, real time PCR gene expression: Collagen 2A1
- Type: cell-based, human
- condition label: Collagen 2A1; Day 22; vs saline; Table 16
API note: the answer field is a bare number with no unit suffix.

>>> value_observed("C[C@@H]1NC(=O)[C@H](CC(=O)O)NC1=O [DADKP, aspartyl-alanyl diketopiperazine]")
136.83
>>> value_observed("CC(=O)N[C@@H](Cc1c[nH]c2ccccc12)C(=O)O [NAT, N-acetyl-tryptophan]")
262.94
>>> value_observed("CC(=O)OCC(=O)[C@@]1(O)[C@H](C)C[C@H]2[C@@H]3CCC4=CC(=O)C=C[C@]4(C)[C@@]3(F)[C@@H](O)C[C@@]21C [Dexamethasone, Dexamethasone acetate]")
168.82
>>> value_observed("CCCCCCCC(=O)[O-].[Na+] [Caprylate, sodium caprylate]")
101.18

# input for lookup
IN: Item under review: CC#C[C@]1(O)CC[C@H]2[C@@H]3CCC4=CC(=O)CCC4=C3[C@@H](c3ccc(N(C)C)cc3)C[C@@]21C [Mifepristone, mifepristone] . Reported Mean regulation?
OUT: 16.82

* * *

- System: Collagen 2A1
- test description: Stem cell chondrogenesis, real time PCR gene expression: Collagen 2A1
- Type: cell-based, human
- condition label: Day 14; fold regulation vs saline; triplicate wells
Property: Mean regulation, Collagen 2A1; scope: individual compounds
API note: the answer field is a bare number with no unit suffix.

>>> value_observed("CC#C[C@]1(O)CC[C@H]2[C@@H]3CCC4=CC(=O)CCC4=C3[C@@H](c3ccc(N(C)C)cc3)C[C@@]21C")
1.28
>>> value_observed("CC(=O)N[C@@H](Cc1c[nH]c2ccccc12)C(=O)O")
3.81
>>> value_observed("CC(=O)OCC(=O)[C@@]1(O)[C@H](C)C[C@H]2[C@@H]3CCC4=CC(=O)C=C[C@]4(C)[C@@]3(F)[C@@H](O)C[C@@]21C [Dexamethasone, Dexamethasone acetate]")
8.08

IN: Item under review: CCCCCCCC(=O)[O-].[Na+] [Caprylate, sodium caprylate] . Reported Mean regulation, Collagen 2A1?
OUT: 6.14

IN: What would you report for C[C@@H]1NC(=O)[C@H](CC(=O)O)NC1=O ?
OUT: 1.01
